Ref: patent US10168342B2

biological target: AEA-DA lipid probe targets in Neuro2a cells (Mus musculus); conditions: competitor 25 μM
Sequence (Q3UEB3 whole entry): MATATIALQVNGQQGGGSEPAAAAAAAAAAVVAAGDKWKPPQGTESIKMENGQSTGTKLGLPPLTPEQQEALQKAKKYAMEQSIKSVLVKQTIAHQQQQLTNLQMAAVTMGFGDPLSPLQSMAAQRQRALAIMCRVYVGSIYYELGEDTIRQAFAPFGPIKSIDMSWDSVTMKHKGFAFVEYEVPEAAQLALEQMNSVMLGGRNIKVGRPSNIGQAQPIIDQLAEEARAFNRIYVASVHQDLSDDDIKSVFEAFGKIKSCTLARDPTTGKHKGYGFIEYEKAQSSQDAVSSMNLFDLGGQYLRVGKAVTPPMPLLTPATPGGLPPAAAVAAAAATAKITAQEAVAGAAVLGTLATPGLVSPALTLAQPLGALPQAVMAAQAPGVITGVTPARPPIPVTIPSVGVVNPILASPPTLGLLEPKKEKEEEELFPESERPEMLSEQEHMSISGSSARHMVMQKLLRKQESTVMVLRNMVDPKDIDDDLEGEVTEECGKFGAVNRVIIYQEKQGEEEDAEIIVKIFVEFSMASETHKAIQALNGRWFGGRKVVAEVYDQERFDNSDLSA
Measured SILAC ratio Puf60 of individual entries

1) C=CCN(C)CCCCCCOc1ccc(C(=O)c2ccc(Br)cc2)c(F)c1 [Ro 48-8071, reference compound]	1.0
2) O=C(/C=C/c1cccnc1)NCCCCC1CCN(C(=O)c2ccccc2)CC1 [FK-866, reference compound]	1.3

Ask: What value of measured SILAC ratio Puf60 is listed for "CN1CCN(C(=O)c2c(-c3ccccc3)c3cc([N+](=O)[O-])ccc3n2C)CC1" ?
Result: 1.3

Ask: What value of measured SILAC ratio Puf60 is listed for "CN1CCN(C(=O)c2[nH]c3ccc([N+](=O)[O-])cc3c2-c2ccccc2)CC1" ?
Result: 1.2
